System: BT-549 breast
assay: NCI-60 one-dose screen, 48 h
settings: 10 µM unless noted
The panel holds about 83,000 compounds, 20% with a hit somewhere; the sample as a whole holds those more often. Active and inactive are the calls of the source. The calls were made as follows: active = growth percent below 10; inactive = the rest.
Bench note: report the call from class 1 = active, class 0 = inactive

molecular-string	test-system	cat
C[C@]12CC[C@@H]3c4ccc(O)c([N+](=O)[O-])c4CC[C@H]3[C@@H]1CCC2=O	BT-549 breast	class 0
N#C/C(=C/c1ccc([N+](=O)[O-])cc1)n1nnc2cc(F)c(F)cc21	BT-549 breast	class 0
C=C(C)[C@@H]1CC[C@]2(C(=O)NCC#CCN3CCN(C)CC3)CC[C@]3(C)[C@H](CC[C@@H]4[C@@](C)(CCC#N)[C@H](C(=C)C)CC[C@]43C)[C@@H]12	BT-549 breast	class 0
COc1ccc(/C=N/NC(=O)CCN2c3ccccc3Sc3ccccc32)cc1	BT-549 breast	class 0
O=C(Cc1ccccc1)Nc1nc(O)c(/C=C2\C(=O)C=Cc3ccccc32)s1	BT-549 breast	class 0
COc1ccc2c(O)c(/C=C3\N=Nc4ncccc43)oc2c1C[C@H]1CCNC[C@H]1F	BT-549 breast	class 1

Request: Test call, this compound: "CCOC(=O)C#Cc1c(C(=O)OCC)nnn1[C@@H]1O[C@H](CO)[C@H]2OC3(CCCCC3)O[C@H]21"
Response: class 0

Request: Test call, this compound: "CCOC(=O)c1cn2ncnc(Oc3ccc(NC(=O)NC4CCCCC4)c(Cl)c3)c2c1C"
Response: class 0

Value source: PubChem BioAssay (NCI)
